B1: FAM46C (parent)
chain: FDHLQNRLIATKNPEEIRGGGLLK

Variants of: B1
Assay: protein stability index of a GFP-peptide fusion (GPS, HEK-293T) (PSI 1-6); higher = more stable;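 further: lentivirally expressed fusions sorted by FACS into six bins by GFP to DsRed ratio, PSI derived from sequencing read proportions per bin multiplied by bin number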
Conditions: c terminus: a fixed tail appended
So basically, the class depends on measured protein stability index, and the ranges are bin 0 (below 3), bin 1 (3 to below 4), bin 2 (4 or more)

The entry to classify is `R18I` ; which class holds it? bin 1

Lab note: which band did `G20T` land in? bin 1

Which category fits this record: `N13M` bin 0

Returns: class label. Input: `G21Y` bin 1

Where would `L22D` land among the classes by reported protein stability index? bin 2

Assign a category based on measured protein stability index for `K12C` and give only the class name. bin 0

Hello team, could you let me know which band the following variant falls into: `K12T` bin 1

Quick check: band for `G21V` bin 1

Please let me know in which category the item `G20I` belongs. bin 1

Classify this variant: `L4A` bin 1

Hey, which category is `E16S` in, do you know? bin 1

Please classify: `G19V` bin 1

Class for `L8G` ? bin 2

Please classify: `I9K` bin 2

Class label required: `L23R` bin 2

Place this variant in its band: `T11F` bin 1

Hello team, could you let me know which band the following variant falls into: `L4G` bin 2

Which category does the recorded protein stability index put `A10K` in? bin 1

Assign a category based on measured protein stability index for `Q5P` and give only the class name. bin 1

Record `L8A` — which class? bin 2

Determine which band this variant sits in: `L4P` bin 2

Which category fits this record: `N13Q` bin 1

Band for the recorded protein stability index of `K24L` ? bin 0

Which class is correct for the following variant? `K12H` bin 1

Which band does `P14W` fall in? bin 0

Categorize the following entry: `G19R` bin 2

In plain terms, what class is `A10Y` ? bin 0

Could you place `L22Y` in its proper category? Many thanks. bin 1

For the record `L8P` , report the class its protein stability index corresponds to. bin 2

Which bin, given its protein stability index, does `I17N` occupy? bin 2
